Ref: ChEMBL document CHEMBL1201862

Tested on: NCI-H23
protocolDescription: NCI tumour cell line growth inhibition, 48 h
Calls of active or inactive are those of the source. Cut-off read from the data, not from the text of the source: active = GI50 up to about 1.1 µM and inactive = higher.
endpoint: GI50

>>> df
                                    molecule        reportedvalue
 0  CC(C)(C)OC(=O)N1CCc2c(n(C/C=C/c3ccccc3)[nH]c2=O)C1  > 100 µM (inactive)
 1  O=C1OC2C(O)COC2(O)C1(O)C(C[N+](=O)[O-])c1ccc(Cl)cc1 (configuration not stated)   6.95 µM (inactive)
 2  O=C1/C(=C/c2ccc3c(c2)OCO3)CCC1CN1CCOCC1 (configuration not stated)   8.83 µM (inactive)
 3  CCCOP1(=O)C=CC(Cl)=C(C)C1 (configuration not stated)   30.8 µM (inactive)
 4  Cc1cc2c(=O)c3ccc(Cl)cc3[nH]c2c(C(N)=O)c1C  > 100 µM (inactive)
 5  CCOP(=O)(OCC)/C(C#N)=C\c1ccc(OC(C)=O)cc1  > 100 µM (inactive)
 6  CCOc1ccc2nc(NC(NC(=O)c3cccnc3)(C(F)(F)F)C(F)(F)F)sc2c1   22.8 µM (inactive)
 7             Clc1nc(Cl)c(Cc2ccccc2)c(Cl)n1   8.32 µM (inactive)
 8  OC1CC(O)O[C@H](c2ccccc2)C1 (some centres not stated)  > 100 µM (inactive)
 9       O=C(O)/C=C/n1c2ccccc2c(=O)c2ccccc21  > 100 µM (inactive)
10  O=C(CCCN1CCC(Nc2ccccc2)(c2nnnn2C2CCCCC2)CC1)c1ccc(F)cc1   13.7 µM (inactive)
11  CCOC(=O)Cn1nc2ccc(Nc3nc4ccccc4nc3C(=O)OCC)cc2n1   76.6 µM (inactive)
12              O=C1CCCNn2c(nc3ncccc3c2=O)N1  > 100 µM (inactive)
13  Cc1c(C#N)c2nnn(-c3ccc([N+](=O)[O-])cc3)c(=O)n2c1-c1ccccc1    3.9 µM (inactive)
14  CCOC(=O)C1=CNC2=N[C@H]3CCCC[C@@H]3N2C1=O  > 100 µM (inactive)
15  O=C(C#Cc1ccccc1)Nc1ccccc1CC(c1c[nH]c2ccccc12)c1c[nH]c2ccccc12   15.4 µM (inactive)
16  C=C1C(=O)O[C@@H]2C[C@@]3(C)CCC[C@H](C)C3=C[C@H]12   4.94 µM (inactive)
17              O=C1CCC(=O)C12CCc1cccc(O)c12  > 100 µM (inactive)
18  Cc1c(/C=N/NC(=O)c2cc(Br)cc(Br)c2O)c(=O)n(-c2ccccc2)n1C   77.3 µM (inactive)
19     NC(=O)C(=Cc1ccc(CP(=O)(O)O)cc1)C(N)=O  > 100 µM (inactive)
20  O=C1/C(=C/c2ccccc2)CN(C(=O)/C=C/c2ccccc2)C/C1=C\c1ccccc1   12.4 µM (inactive)
21      Cc1ccc2nc3c(C(=O)NCCN(C)C)cccc3cc2c1   1.84 µM (inactive)
